Tested on: HS 578T breast
Assay: NCI-60 one-dose screen, 48 h (100 = growth as untreated, 0 = no growth, -100 = all killed)
Details: 10 µM
Procedure: Growth inhibition of the HS 578T human tumor cell line is measured as a screen for anti-cancer activity. Cells are grown in 96 well plates and exposed to the test compound for 48 hours. Compounds are tested at a single concentration, which is 10^-5 M for most compounds. The reported endpoint is percent growth (GI% or GIPRCNT), where numbers from 0 - 100% represent growth inhibition, and numbers from -100% - 0 represent cell death. For example, a value of 40 represents 60% growth inhibition. […]
The panel holds about 83,000 compounds, 20% with a hit somewhere; the sample as a whole holds those more often.
For each entry below, report its growth value.
Reply with just the number (in %).

Noted for CC1CCCC(CC(N)=O)CC1 (configuration not stated) : its growth reads 107

Briefly, growth measured for `Nc1ncnc2[nH]ncc12` : 37.3

get_value(item= `CCn1c(=O)n(C)c2c(=O)n(C)c(=O)n(C)c21` , readout=growth) returns 110

Reported growth for `C[N+](C)=c1ccc2nc3c(cc(Nc4ccccc4)c4ccccc43)oc-2c1` was 63.6

get_value(item= CCN(CC)CCCC(C)Nc1ccnc(/C=C/c2ccc(Cl)cc2)c1 (configuration not stated) , readout=growth) returns 47.1

For reference, reported growth for `C=CC(=O)OCCCCCCCC` stands at 109

The reported value for CC1OC(Oc2c(-c3ccc(O)c(O)c3)oc3cc(O)cc(O)c3c2=O)C(O)C(O)C1O (configuration not stated) in terms of growth is 105

These data points were gathered from PubChem BioAssay (NCI).
